- Test system: biotinyl-Trp-oxazolone
- assay: self-aminoacylation, catalytic enhancement (BWO) (fold over background); higher = more active; k-Seq, kA / k0A0; sequences stand for … in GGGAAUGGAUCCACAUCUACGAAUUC…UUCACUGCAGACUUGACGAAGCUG
Variants at the floor of the assay were thinned out.

{"construct_sequence": "AUUAACCUAGGUCAUCGGGAG [Fam2.2 aminoacylation ribozyme variant]", "system_name": "biotinyl-Trp-oxazolone", "self-aminoacylation": 0.979}
{"construct_sequence": "CUACUUCAAAGAAUAGGUCUG [Fam1A.1 aminoacylation ribozyme variant]", "system_name": "biotinyl-Trp-oxazolone", "self-aminoacylation": 0.59}
{"construct_sequence": "CCACACUUUAAGCAAUCGGAC [Fam1B.1 aminoacylation ribozyme variant]", "system_name": "biotinyl-Trp-oxazolone", "self-aminoacylation": 0.544}
{"construct_sequence": "AUUACGCUGGUUAUCGAGUGA [Fam2.1 aminoacylation ribozyme variant]", "system_name": "biotinyl-Trp-oxazolone", "self-aminoacylation": 6.53}
